Biological target: SARS-CoV-2 NSP3 macrodomain (Mac1), P43 crystal form (Severe acute respiratory syndrome coronavirus 2)
Assay type: binding
Details: occupancy estimate from PanDDA 1-BDC
measured attribute: 2*(1-BDC) (%)
Please state the figure in %; there is no need to write the unit.

2*(1-BDC) (%) for O[C@H]1COC[C@@H]1Nc1ncnc2[nH]ccc12 [AVI-1444] is 16

2*(1-BDC) (%) for O=C(O)C(F)(F)F.O[C@H]1CCC[C@@H]1Nc1ncnc2[nH]ccc12 [AVI-3639] is 22

2*(1-BDC) (%) for CCC(CC)(CO)Nc1ncnc2[nH]ccc12 [AVI-3695] is 24

2*(1-BDC) (%) for OCC(CC1CCCCC1)Nc1ncnc2[nH]ccc12 (centres unmarked) [AVI-3690] is 24

2*(1-BDC) (%) for O=C(O)C(F)(F)F.OCC1(Nc2ncnc3[nH]ccc23)CCC1 [AVI-3670] is 36

---

Answer each item with its documented Hill slope.
Biological target: SARS-CoV-2 NSP3 macrodomain (Mac1) (Severe acute respiratory syndrome coronavirus 2)
Assay: biochemical
Type: binding
Conditions: HTRF dose-response fit, Mac1
Form: value (number only, do not type unit).

Hill slope for `CC(C)(CO)Nc1ncnc2[nH]ccc12` is 1.1

Hill slope for OC1(CNc2ncnc3[nH]ccc23)COC2CC1C2 (centres unmarked) is 1.2

Hill slope for CC(Nc1ncnc2[nH]ccc12)C1(O)CCCCC1 (centres unmarked) is 1.2

Hill slope for `OC1(CNc2ncnc3[nH]ccc23)CCC(F)(F)CC1` is 1.2

Hill slope for `CC1(C)CCC(O)(CNc2ncnc3[nH]ccc23)CC1` is 1.3

Hill slope for CC1CCC(O)(CNc2ncnc3[nH]ccc23)CC1 (centres unmarked) is 1.2

Hill slope for OCC1CC2(CCCC2)CN1c1ncnc2[nH]ccc12 (centres unmarked) is 1.1

Hill slope for `OC1(CNc2ncnc3[nH]ccc23)CCCCC1` is 1.1

Hill slope for `O=C(O)C(F)(F)F.OC[C@H](Cc1ccc(O)cc1)Nc1ncnc2[nH]ccc12` is 1.1

Hill slope for CC1CCCC(O)(CNc2ncnc3[nH]ccc23)C1 (centres unmarked) is 1.0

Hill slope for OC1CCC(O)(CNc2ncnc3[nH]ccc23)CC1 (centres unmarked) is 1.3

---

Target: SARS-CoV-2 NSP3 macrodomain (Mac1), P43 crystal form (Severe acute respiratory syndrome coronavirus 2)
Type: binding
Conditions: occupancy estimate from PanDDA BDC
Lab note: anything with 2*(1-BDC) (%) below 30% is marked MET; values at 30% or higher are marked NOT MET.

Problem: Would you kindly verify if 2*(1-BDC) (%) of `CC(C)(CO)Nc1ncnc2[nH]ccc12` is strictly less than 30%?
Result: MET

Problem: Would you kindly verify if 2*(1-BDC) (%) of `O=C(O)C(F)(F)F.OC[C@H](Cc1ccc(O)cc1)Nc1ncnc2[nH]ccc12` is strictly less than 30%?
Result: NOT MET

Problem: Would you kindly verify if 2*(1-BDC) (%) of OC1(CNc2ncnc3[nH]ccc23)CCCC(C(F)(F)F)C1 (centres unmarked) is strictly less than 30%?
Result: NOT MET

Problem: Would you kindly verify if 2*(1-BDC) (%) of `CC(C)n1nnnc1SCc1c(C(=O)O)sc2cccc(F)c12` is strictly less than 30%?
Result: NOT MET

Problem: Would you kindly verify if 2*(1-BDC) (%) of `OC1(CNc2ncnc3[nH]ccc23)CCSCC1` is strictly less than 30%?
Result: NOT MET

Problem: Would you kindly verify if 2*(1-BDC) (%) of `CN(CC1(O)CCOCC1)c1ncnc2[nH]ccc12` is strictly less than 30%?
Result: NOT MET

Problem: Would you kindly verify if 2*(1-BDC) (%) of CC(C)(O)C1C2CCC2CN1c1ncnc2[nH]ccc12 (centres unmarked) is strictly less than 30%?
Result: NOT MET

Problem: Would you kindly verify if 2*(1-BDC) (%) of CC(O)C1CCCN1c1ncnc2[nH]ccc12 (centres unmarked) is strictly less than 30%?
Result: NOT MET

Problem: Would you kindly verify if 2*(1-BDC) (%) of OC1(CNc2ncnc3[nH]ccc23)CC2CCC1CC2 (centres unmarked) is strictly less than 30%?
Result: MET

Problem: Would you kindly verify if 2*(1-BDC) (%) of OC1(CNc2ncnc3[nH]ccc23)CCCOC1 (centres unmarked) is strictly less than 30%?
Result: NOT MET

Problem: Would you kindly verify if 2*(1-BDC) (%) of CC(O)C(C)Nc1ncnc2[nH]ccc12 (centres unmarked) is strictly less than 30%?
Result: NOT MET

Problem: Would you kindly verify if 2*(1-BDC) (%) of CC1CCCC(O)(CNc2ncnc3[nH]ccc23)C1 (centres unmarked) is strictly less than 30%?
Result: NOT MET

Problem: Would you kindly verify if 2*(1-BDC) (%) of C[C@@H]1CCN(c2ncnc3[nH]ccc23)[C@H](CO)C1 (racemic) is strictly less than 30%?
Result: NOT MET

Problem: Would you kindly verify if 2*(1-BDC) (%) of OCC1C=CCCN1c1ncnc2[nH]ccc12 (centres unmarked) is strictly less than 30%?
Result: NOT MET

Problem: Would you kindly verify if 2*(1-BDC) (%) of C[C@H]1CC[C@H](CO)N(c2ncnc3[nH]ccc23)C1 (racemic) is strictly less than 30%?
Result: NOT MET

Problem: Would you kindly verify if 2*(1-BDC) (%) of OC1(CNc2ncnc3[nH]ccc23)CCCSC1 (centres unmarked) is strictly less than 30%?
Result: NOT MET

Problem: Would you kindly verify if 2*(1-BDC) (%) of CC(C)C1CCCN1c1ncnc2[nH]ccc12 (centres unmarked) is strictly less than 30%?
Result: MET

Problem: Would you kindly verify if 2*(1-BDC) (%) of `Cc1c[nH]c2ncnc(NCC3(O)CCOCC3)c12` is strictly less than 30%?
Result: MET

Problem: Would you kindly verify if 2*(1-BDC) (%) of CC(C)(O)C1N(c2ncnc3[nH]ccc23)CCC1(C)C (centres unmarked) is strictly less than 30%?
Result: NOT MET

Problem: Would you kindly verify if 2*(1-BDC) (%) of `O[C@H]1CC[C@H]2CCN(c3ncnc4[nH]ccc34)[C@H]21` is strictly less than 30%?
Result: NOT MET

Problem: Would you kindly verify if 2*(1-BDC) (%) of OC1CCC(O)(CNc2ncnc3[nH]ccc23)CC1 (centres unmarked) is strictly less than 30%?
Result: MET

Problem: Would you kindly verify if 2*(1-BDC) (%) of OC1(CNc2ncnc3[nH]ccc23)COC2CC1C2 (centres unmarked) is strictly less than 30%?
Result: NOT MET

Problem: Would you kindly verify if 2*(1-BDC) (%) of O=S1(=O)CCCC(O)(CNc2ncnc3[nH]ccc23)C1 (centres unmarked) is strictly less than 30%?
Result: NOT MET

Problem: Would you kindly verify if 2*(1-BDC) (%) of CC(C)(O)C1C2CCCCC2CN1c1ncnc2[nH]ccc12 (centres unmarked) is strictly less than 30%?
Result: NOT MET

Problem: Would you kindly verify if 2*(1-BDC) (%) of Cc1c[nH]c2ncnc(NCC3(O)CCC(C)CC3)c12 (centres unmarked) is strictly less than 30%?
Result: NOT MET

Problem: Would you kindly verify if 2*(1-BDC) (%) of `OC1(CNc2ncnc3[nH]ccc23)CCCCC1` is strictly less than 30%?
Result: NOT MET

Problem: Would you kindly verify if 2*(1-BDC) (%) of CC(C)(C)C1CCCN1c1ncnc2[nH]ccc12 (centres unmarked) is strictly less than 30%?
Result: MET

Problem: Would you kindly verify if 2*(1-BDC) (%) of O=C(O)C(c1ccccc1)n1sc2ccccc2c1=O (centres unmarked) is strictly less than 30%?
Result: NOT MET

Problem: Would you kindly verify if 2*(1-BDC) (%) of O=C1CCc2cc(C(=O)N3CC(C(=O)O)CCC34CCCC4)c(F)cc2N1 (centres unmarked) is strictly less than 30%?
Result: MET

Problem: Would you kindly verify if 2*(1-BDC) (%) of CC1CCC(O)(CNc2ncnc3[nH]ccc23)CC1 (centres unmarked) is strictly less than 30%?
Result: NOT MET

Problem: Would you kindly verify if 2*(1-BDC) (%) of `Cc1c[nH]c2ncnc(NCC3(O)CCSCC3)c12` is strictly less than 30%?
Result: MET

Problem: Would you kindly verify if 2*(1-BDC) (%) of OCC1CC=CCN1c1ncnc2[nH]ccc12 (centres unmarked) is strictly less than 30%?
Result: NOT MET

Problem: Would you kindly verify if 2*(1-BDC) (%) of Cc1c[nH]c2ncnc(NCC3(O)CCC(O)CC3)c12 (centres unmarked) is strictly less than 30%?
Result: MET

Problem: Would you kindly verify if 2*(1-BDC) (%) of `CNc1ccc(NS(=O)(=O)c2cc3cccc(C)c3s2)cn1` is strictly less than 30%?
Result: NOT MET

Problem: Would you kindly verify if 2*(1-BDC) (%) of CC1(C)CCN(c2ncnc3[nH]ccc23)C(CO)C1 (centres unmarked) is strictly less than 30%?
Result: NOT MET
